- Tested on: U-251
- ASSAY_REMARKS: Growth inhibition of human U251 cells incubated for 48 hrs by sulforhodamine B assay
- Assay type: functional
- CONDITION_NOTES: U-251, 48 h
PARAMETER_MEASURED: TGI (µM)
Kindly provide the numeric value in µM only, without the unit symbol.

- MOLECULE: "C=C1CC[C@@H]2[C@](C)(COC(C)=O)[C@H](OC(C)=O)CC[C@@]2(C)[C@H]1CC(Nc1ccc(S(=O)(=O)Nc2nccc(C)n2)cc1)C1=CCOC1=O (stereo not given in full)"
  TEST_SYSTEM: "U-251"
  UNIT_INFO: "µM"
  TGI: 10.7
- MOLECULE: "C=C1CC[C@@H]2[C@](C)(COC(C)=O)[C@H](OC(C)=O)CC[C@@]2(C)[C@H]1CC(Nc1ccc(S(=O)(=O)Nc2ccc(Cl)nn2)cc1)C1=CCOC1=O (stereo not given in full)"
  TEST_SYSTEM: "U-251"
  UNIT_INFO: "µM"
  TGI: 3.05

Item: C=C1CC[C@@H]2[C@](C)(COC(C)=O)[C@H](OC(C)=O)CC[C@@]2(C)[C@H]1CC(Nc1ccc(S(=O)(=O)Nc2nccs2)cc1)C1=CCOC1=O (stereo not given in full) | TGI: 3.5

The molecule listed as C=C1CC[C@@H]2[C@](C)(COC(C)=O)[C@H](OC(C)=O)CC[C@@]2(C)[C@H]1CC(Nc1ccc(S(=O)(=O)Nc2ncccn2)cc1)C1=CCOC1=O (stereo not given in full) shows TGI equal to 3.28

Lookup result for C=C1CC[C@@H]2[C@](C)(COC(C)=O)[C@H](OC(C)=O)CC[C@@]2(C)[C@H]1CC(Nc1ccc(S(=O)(=O)Nc2cc(C)on2)cc1)C1=CCOC1=O (stereo not given in full) ; measured TGI: 3.4

###

- Test system: RXF 393
- ASSAY_REMARKS: Anticancer activity against human RXF393 cells assessed as cell growth at 10 uM after 48 hrs by sulforhodamine B assay relative to control
- Type: functional
- CONDITION_NOTES: RXF 393, 48 h, read-out: Activity
A collection of compounds and their measured growth at 10 µM
Hi! Could you send only the number? It should be in %, unit omitted.

Example entries and their recorded answers appear below.
- COMPOUND: "C=C1CC[C@@H]2[C@](C)(COC(C)=O)[C@H](OC(C)=O)CC[C@@]2(C)[C@H]1CC(Nc1ccc(S(=O)(=O)Nc2nccs2)cc1)C1=CCOC1=O (stereo partly drawn)"
  PARAMETER_MEASURED: "growth at 10 µM"
  UNIT_INFO: "%"
  MEAS_VALUE: -50.6
- COMPOUND: "C=C1CC[C@@H]2[C@](C)(COC(C)=O)[C@H](OC(C)=O)CC[C@@]2(C)[C@H]1CC(Nc1ccc(S(=O)(=O)Nc2ccc(Cl)nn2)cc1)C1=CCOC1=O (stereo partly drawn)"
  PARAMETER_MEASURED: "growth at 10 µM"
  UNIT_INFO: "%"
  MEAS_VALUE: -13.4

Please examine the following record next.
growth at 10 µM reported for this compound C=C1CC[C@@H]2[C@](C)(COC(C)=O)[C@H](OC(C)=O)CC[C@@]2(C)[C@H]1CC(Nc1ccc(S(=O)(=O)Nc2cc(C)on2)cc1)C1=CCOC1=O (stereo partly drawn) : 29.8

###

Each record here notes measured CC50.
- Test system: KM12
- ASSAY_REMARKS: Growth inhibition of human KM12 cells incubated for 48 hrs by sulforhodamine B assay
- Format: functional
- CONDITION_NOTES: KM12, 48 h, read-out: LC50 (the source's name)
# output: bare number, implied unit µM

- MOLECULE: "C=C1CC[C@@H]2[C@](C)(COC(C)=O)[C@H](OC(C)=O)CC[C@@]2(C)[C@H]1CC(Nc1ccc(S(=O)(=O)Nc2ccc(Cl)nn2)cc1)C1=CCOC1=O (stereo not given in full)"
  CC50, µM: 7.16
- MOLECULE: "C=C1CC[C@@H]2[C@](C)(COC(C)=O)[C@H](OC(C)=O)CC[C@@]2(C)[C@H]1CC(Nc1ccc(S(=O)(=O)Nc2cc(C)on2)cc1)C1=CCOC1=O (stereo not given in full)"
  CC50, µM: 7.42
- MOLECULE: "C=C1CC[C@@H]2[C@](C)(COC(C)=O)[C@H](OC(C)=O)CC[C@@]2(C)[C@H]1CC(Nc1ccc(S(=O)(=O)Nc2nccs2)cc1)C1=CCOC1=O (stereo not given in full)"
  CC50, µM: 53.3
- MOLECULE: "C=C1CC[C@@H]2[C@](C)(COC(C)=O)[C@H](OC(C)=O)CC[C@@]2(C)[C@H]1CC(Nc1ccc(S(=O)(=O)Nc2nccc(C)n2)cc1)C1=CCOC1=O (stereo not given in full)"
  CC50, µM: 44.4

Item: C=C1CC[C@@H]2[C@](C)(COC(C)=O)[C@H](OC(C)=O)CC[C@@]2(C)[C@H]1CC(Nc1ccc(S(=O)(=O)Nc2ncccn2)cc1)C1=CCOC1=O (stereo not given in full) | CC50: 17.8

###

- Test system: COLO 205
- ASSAY_REMARKS: Growth inhibition of human COLO205 cells incubated for 48 hrs by sulforhodamine B assay
- Type: functional
- CONDITION_NOTES: COLO 205, 48 h
// classify: if (GI50 < 2000 nM) fulfilled else not fulfilled

Illustrative cases are given below, each with its answer.
- COMPOUND: "C=C1CC[C@@H]2[C@](C)(COC(C)=O)[C@H](OC(C)=O)CC[C@@]2(C)[C@H]1CC(Nc1ccc(S(=O)(=O)Nc2nccs2)cc1)C1=CCOC1=O (stereo not given in full)"
  TEST_SYSTEM: "COLO 205"
  GROUP: "not fulfilled"
- COMPOUND: "C=C1CC[C@@H]2[C@](C)(COC(C)=O)[C@H](OC(C)=O)CC[C@@]2(C)[C@H]1CC(Nc1ccc(S(=O)(=O)Nc2ncccn2)cc1)C1=CCOC1=O (stereo not given in full)"
  TEST_SYSTEM: "COLO 205"
  GROUP: "fulfilled"
- COMPOUND: "C=C1CC[C@@H]2[C@](C)(COC(C)=O)[C@H](OC(C)=O)CC[C@@]2(C)[C@H]1CC(Nc1ccc(S(=O)(=O)Nc2nccc(C)n2)cc1)C1=CCOC1=O (stereo not given in full)"
  TEST_SYSTEM: "COLO 205"
  GROUP: "not fulfilled"

With those in mind, consider the next compound.
Ask: Determine if C=C1CC[C@@H]2[C@](C)(COC(C)=O)[C@H](OC(C)=O)CC[C@@]2(C)[C@H]1CC(Nc1ccc(S(=O)(=O)Nc2ccc(Cl)nn2)cc1)C1=CCOC1=O (stereo not given in full) shows GI50 strictly lower than 2000 nM.
Result: fulfilled

###

- System: NCI-H460
- ASSAY_REMARKS: Growth inhibition of human NCI-H460 cells incubated for 48 hrs by sulforhodamine B assay
- Type: functional
- CONDITION_NOTES: NCI-H460, 48 h
Examples of compounds with documented TGI follow.
Note: unit µM is implicit; provide only the numeric part.

The examples below pair each entry with its known result.
- COMPOUND: "C=C1CC[C@@H]2[C@](C)(COC(C)=O)[C@H](OC(C)=O)CC[C@@]2(C)[C@H]1CC(Nc1ccc(S(=O)(=O)Nc2nccc(C)n2)cc1)C1=CCOC1=O (stereo not given in full)"
  UNIT_INFO: "µM"
  TGI: 18.3
- COMPOUND: "C=C1CC[C@@H]2[C@](C)(COC(C)=O)[C@H](OC(C)=O)CC[C@@]2(C)[C@H]1CC(Nc1ccc(S(=O)(=O)Nc2ncccn2)cc1)C1=CCOC1=O (stereo not given in full)"
  UNIT_INFO: "µM"
  TGI: 4.06
- COMPOUND: "C=C1CC[C@@H]2[C@](C)(COC(C)=O)[C@H](OC(C)=O)CC[C@@]2(C)[C@H]1CC(Nc1ccc(S(=O)(=O)Nc2nccs2)cc1)C1=CCOC1=O (stereo not given in full)"
  UNIT_INFO: "µM"
  TGI: 25.3
- COMPOUND: "C=C1CC[C@@H]2[C@](C)(COC(C)=O)[C@H](OC(C)=O)CC[C@@]2(C)[C@H]1CC(Nc1ccc(S(=O)(=O)Nc2ccc(Cl)nn2)cc1)C1=CCOC1=O (stereo not given in full)"
  UNIT_INFO: "µM"
  TGI: 4.31

NCI-H460 assay, compound C=C1CC[C@@H]2[C@](C)(COC(C)=O)[C@H](OC(C)=O)CC[C@@]2(C)[C@H]1CC(Nc1ccc(S(=O)(=O)Nc2cc(C)on2)cc1)C1=CCOC1=O (stereo not given in full) , recorded TGI = 5.7

###

- Test system: DU-145
- ASSAY_REMARKS: Anticancer activity against human DU145 cells assessed as cell growth at 10 uM after 48 hrs by sulforhodamine B assay relative to control
- Assay type: functional
- CONDITION_NOTES: DU-145, 48 h, read-out: Activity
Tag: y if measured growth at 10 µM is not below 40%, n if it is.

Ask: # check: growth at 10 µM of C=C1CC[C@@H]2[C@](C)(COC(C)=O)[C@H](OC(C)=O)CC[C@@]2(C)[C@H]1CC(Nc1ccc(S(=O)(=O)Nc2nccc(C)n2)cc1)C1=CCOC1=O (stereo partly specified) is greater than or equal to 40%
Result: n

Ask: Check this compound for growth at 10 µM at or above 40%: C=C1CC[C@@H]2[C@](C)(COC(C)=O)[C@H](OC(C)=O)CC[C@@]2(C)[C@H]1CC(Nc1ccc(S(=O)(=O)Nc2nc(C)cc(C)n2)cc1)C1=CCOC1=O (stereo partly specified)
Result: y

Ask: Could you tell me if the measured growth at 10 µM of C=C1CC[C@@H]2[C@](C)(COC(C)=O)[C@H](OC(C)=O)CC[C@@]2(C)[C@H]1CC(Nc1ccc(S(=O)(=O)Nc2ncccn2)cc1)C1=CCOC1=O (stereo partly specified) reaches 40% or more?
Result: n

Ask: In plain terms: is recorded growth at 10 µM at least 40% for C=C1CC[C@@H]2[C@](C)(COC(C)=O)[C@H](OC(C)=O)CC[C@@]2(C)[C@H]1CC(Nc1ccc(S(=O)(=O)Nc2nccs2)cc1)C1=CCOC1=O (stereo partly specified) ?
Result: n

Ask: Decide: growth at 10 µM of C=C1CC[C@@H]2[C@](C)(COC(C)=O)[C@H](OC(C)=O)CC[C@@]2(C)[C@H]1CC(Nc1ccc(S(=O)(=O)Nc2cc(C)on2)cc1)C1=CCOC1=O (stereo partly specified) >= 40%?
Result: y
